Biological target: Tryptophan--tRNA ligase (Mycobacterium tuberculosis (strain ATCC 25618 / H37Rv)) (UniProt P9WFT3)
Sequence (P9WFT3 whole entry): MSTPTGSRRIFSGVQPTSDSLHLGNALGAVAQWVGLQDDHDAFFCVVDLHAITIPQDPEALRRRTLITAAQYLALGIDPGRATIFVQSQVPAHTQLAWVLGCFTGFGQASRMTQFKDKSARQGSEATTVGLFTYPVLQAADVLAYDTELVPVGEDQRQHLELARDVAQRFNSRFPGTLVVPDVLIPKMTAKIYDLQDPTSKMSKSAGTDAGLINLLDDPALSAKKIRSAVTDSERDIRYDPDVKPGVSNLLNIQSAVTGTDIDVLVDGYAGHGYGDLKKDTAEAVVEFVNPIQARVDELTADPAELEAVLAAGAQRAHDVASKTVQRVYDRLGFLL
Experiment: Biochemical assay for Mt-TrpRS
Assay type: functional
Set-up: scale not given: direction of the effect not stated beside the values
Conditions: 10 µM
Hit rate of the full screen: of about 65,000 compounds, about 65 (0.1%) showed an effect of 50% or more. This is one part of a sample in which strong results are shown more often than they occur.
Please provide measured Percent Effect for the entries that follow.
Return type: number; implicit unit %.

INPUT: Suppose we examine the molecule `CC(=O)N1[C@H](CN(C)C)C[C@@H]2CN(C(=O)c3cccn3C)CC[C@@H]21` ; what Percent Effect value has been reported?
OUTPUT: -8.29

INPUT: Continue with `CC(=O)N1CC2(CCN(Cc3ccc(Cl)cc3)CC2)Cc2ccccc21`
OUTPUT: -5.45

INPUT: Continue with `O=C(CC1CC1)N1CCO[C@H]2[C@H](OCCCn3cccn3)CC[C@@H]21`
OUTPUT: -5.05

INPUT: Continue with `COCCNC(=O)Cn1ccc2sc(C)cc2c1=O`
OUTPUT: 0.44

INPUT: Continue with `Cc1nc(C)c(CNC[C@@]2(COc3cccnc3)C[C@@H](O)[C@@H](O)C2)s1`
OUTPUT: -10.4
